Here we list compounds with their recorded pIC50 when tested on urease (Canavalia ensiformis, UniProt P07374).
Sequence (P07374 whole entry, looked up): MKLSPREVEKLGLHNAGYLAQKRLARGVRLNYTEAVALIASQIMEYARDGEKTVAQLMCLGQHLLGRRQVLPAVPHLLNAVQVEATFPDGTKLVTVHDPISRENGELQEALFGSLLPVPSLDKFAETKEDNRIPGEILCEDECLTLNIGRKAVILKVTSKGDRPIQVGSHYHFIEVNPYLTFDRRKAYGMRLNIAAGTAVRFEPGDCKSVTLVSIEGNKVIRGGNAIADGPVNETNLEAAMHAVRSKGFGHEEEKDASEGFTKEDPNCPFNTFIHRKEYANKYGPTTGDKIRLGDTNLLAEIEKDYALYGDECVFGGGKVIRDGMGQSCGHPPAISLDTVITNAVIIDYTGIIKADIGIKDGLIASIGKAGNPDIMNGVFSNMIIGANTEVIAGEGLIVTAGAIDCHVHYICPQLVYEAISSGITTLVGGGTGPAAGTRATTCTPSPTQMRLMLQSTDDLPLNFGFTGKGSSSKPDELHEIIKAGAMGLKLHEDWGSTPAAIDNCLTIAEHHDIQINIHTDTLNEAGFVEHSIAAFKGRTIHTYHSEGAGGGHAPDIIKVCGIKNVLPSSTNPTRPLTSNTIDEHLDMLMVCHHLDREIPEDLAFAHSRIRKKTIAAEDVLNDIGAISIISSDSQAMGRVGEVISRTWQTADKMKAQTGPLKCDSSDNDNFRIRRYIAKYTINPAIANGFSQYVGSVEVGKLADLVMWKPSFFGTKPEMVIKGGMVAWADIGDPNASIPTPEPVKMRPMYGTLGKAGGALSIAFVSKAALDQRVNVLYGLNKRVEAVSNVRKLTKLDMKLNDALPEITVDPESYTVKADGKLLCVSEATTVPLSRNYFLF
# reply with the number alone; pIC50 is -log10 of concentration in mol/L

// worked examples, pIC50 included
| compound | measuredOn | pIC50 |
| --- | --- | --- |
| COc1cc(C2CC(c3ccccc3O)=NN2c2ccccc2)cc(OC)c1OC (stereo not shown) [Compound 2d] | urease (Canavalia ensiformis, UniProt P07374) | 4.88 |
| COc1ccc(C2CC(c3ccccc3O)=NN2c2ccccc2)cc1 (stereo not shown) [Compound 2e] | urease (Canavalia ensiformis, UniProt P07374) | 4.81 |
| COc1ccc(C2CC(c3ccccc3O)=NN2c2ccccc2)cc1OC (stereo not shown) [Compound 2g] | urease (Canavalia ensiformis, UniProt P07374) | 5.04 |

Any idea what its pIC50 is? The compound is Oc1ccccc1C1=NN(c2ccccc2)C(c2ccc(Br)cc2)C1 (stereo not shown) [Compound 2c]
4.90

Same question, CC(=O)Nc1ccc(C2CC(c3ccccc3O)=NN2c2ccccc2)cc1 (stereo not shown) [Compound 2j] this time
4.86

Repeat with Cc1ccc(C2CC(c3ccccc3O)=NN2c2ccccc2)c(C)c1 (stereo not shown) [Compound 2p]
4.91

Could you do the same for O=C(O)c1ccc(C2CC(c3ccccc3O)=NN2c2ccccc2)cc1 (stereo not shown) [Compound 2h] , please?
4.95

---

- measuredOn: urease (Canavalia ensiformis, UniProt P07374)
quantityKind: pKi
pKi field: float, defined as -log10 of concentration (mol/L).

Need pKi, item COc1ccc(C2CC(c3ccccc3O)=NN2c2ccccc2)cc1OC (stereo not shown) [Compound 2g]
4.72

Data provenance: paper PMC8811919
